Data provenance: patent US7973033B2

# System: Aβ 42 production
# procedureText: Quantification of Aβ Peptide in Culture of Neurons from Rat Fetus Brain
# Format: cell-based
# conditionDescription: Neuron, 72 h; rat primary neuronal culture (cerebral cortex, embryonic day 18 Wistar rats); medium collected three days after addition of the compound; Aβ ELISA; read-out: Effect of reducing Aβ 42 production IC50
Lab note - cut at 50 nM for IC50: Yes if strictly below, No if not.

Please review the following examples before continuing.
> print(dat)
                                   compound  classlabel
1  COc1cc(/C=C/c2nc(-c3ccc(F)cc3)c3n2CCNC3=O)ccc1-n1cnc(C)c1 [Example 10]          No
2  COC(=O)c1c(-c2ccc(F)cc2)nc2n1CCC/C2=C\c1ccc(-n2cnc(C)c2)c(OC)c1 [Example 22]          No
3  COc1cc(/C=C/c2nnc(CCc3ccc(F)cc3)[nH]2)ccc1-n1cnc(C)c1 [Example 32]          No
4  COc1cc(/C=C/c2nc3n(n2)CCO[C@H]3c2ccc(C)cc2)ccc1-n1cnc(C)c1 (single isomer, unassigned) [Example 138]         Yes
5  COc1ccc([C@@H]2CCCn3nc(/C=C/c4ccc(-n5cnc(C)c5)c(OC)c4)nc32)cc1 (single isomer, unassigned) [Example 75]         Yes
6  COc1cc(/C=C/c2nnc(C(C)c3ccc(F)cc3)[nH]2)ccc1-n1cnc(C)c1 (racemic) [Example 31]         Yes
7  COc1cc(/C=C/c2nc3n(n2)CCCC3c2cccc3ccccc23)ccc1-n1cnc(C)c1 (single isomer, unassigned) [Example 130]         Yes
8  COc1cc(/C=C/c2nc(-c3ccccc3)cn2C)ccc1-n1cnc(C)c1 [Example 5]         Yes

Determine whether this compound shows IC50 lower than 50 nM (ties excluded): COc1cc(/C=C/c2nc3n(n2)CCC[C@@H]3c2ccc(OC(F)(F)F)cc2)ccc1-n1cnc(C)c1 [Example 129]
Yes

Determine whether this compound shows IC50 lower than 50 nM (ties excluded): COc1cc(/C=C/c2nc3n(n2)CCCC3c2ccc(C)cc2)ccc1-n1cnc(C)c1 (single isomer, unassigned) [Example 151]
Yes

Determine whether this compound shows IC50 lower than 50 nM (ties excluded): COc1cc(/C=C/c2nc(-c3ccc(F)cc3)c3n2CCOC3)ccc1-n1cnc(C)c1 [Example 13]
No

Determine whether this compound shows IC50 lower than 50 nM (ties excluded): COc1cc(/C=C/c2nc3n(n2)CCCC3(O)c2ccc(Cl)cc2)ccc1-n1cnc(C)c1 (single isomer, unassigned) [Example 153]
Yes

---

# Tested on: Aβ 42 production
# procedureText: Quantification of Aβ Peptide in Culture of Neurons from Rat Fetus Brain
# Type: cell-based
# conditionDescription: Neuron, 72 h; rat primary neuronal culture (cerebral cortex, embryonic day 18 Wistar rats); medium collected three days after addition of the compound; Aβ ELISA; read-out: Effect of reducing Aβ 42 production IC50
Recorded IC50, one value per entry.
Reply numerically in nM, unit not repeated.

The following compounds have reported results that may help.
> print(dat)
                                   compound  unitabbrev  number
1  COc1cc(/C=C/c2nc3n(n2)CCCC3c2cc(F)c(F)c(F)c2)ccc1-n1cnc(C)c1 (single isomer, unassigned)          nM      14
2  COc1cc(/C=C/c2nc3n(n2)CCC[C@H]3c2ccccc2)ccc1-n1cnc(C)c1 (single isomer, unassigned)          nM      11
3  COc1cc(/C=C/c2nnc(C(C)(C)c3ccccc3)[nH]2)ccc1-n1cnc(C)c1          nM      63
4  COc1cc(/C=C/c2nc3n(n2)CCC[C@@H]3c2ccc(Cl)cc2)ccc1-n1cnc(C)c1 (single isomer, unassigned)          nM      21
5  COc1cc(/C=C/c2nc(-c3ccccc3)c[nH]2)ccc1-n1cnc(C)c1          nM      76

Form field, IC50 with Aβ 42 production, item COc1cc(/C=C/c2nc3n(n2)CCCC3c2ccc(F)cc2)ccc1-n1cnc(C)c1 (single isomer, unassigned) : 14

Form field, IC50 with Aβ 42 production, item COc1cc(/C=C/c2nc3n(n2)CCOC3c2ccc(OC(F)(F)F)cc2)ccc1-n1cnc(C)c1 (single isomer, unassigned) : 43

Form field, IC50 with Aβ 42 production, item COC(=O)c1[nH]c(/C=C/c2ccc(-n3cnc(C)c3)c(OC)c2)nc1-c1ccc(F)cc1 : 60

---

# Test system: Aβ 42 production
# procedureText: Quantification of Aβ Peptide in Culture of Neurons from Rat Fetus Brain
# Type: cell-based
# conditionDescription: Neuron, 72 h; rat primary neuronal culture (cerebral cortex, embryonic day 18 Wistar rats); medium collected three days after addition of the compound; Aβ ELISA; read-out: Effect of reducing Aβ 42 production IC50
Recorded pIC50, one value per entry.
// pIC50 is dimensionless: -log10 of concentration (M)

The following compounds have reported results that may help.
> print(dat)
                                   compound  measuredattribute  number
1  COc1cc(/C=C/c2nnc(C(C)c3ccc(F)cc3)[nH]2)ccc1-n1cnc(C)c1 (single isomer, unassigned) [Example 36]              pIC50    7.47
2  COc1cc(/C=C/c2nc3n(n2)CCC[C@H]3c2ccccc2Br)ccc1-n1cnc(C)c1 (single isomer, unassigned)              pIC50    7.64

From here, focus on the item given below.
Reported pIC50 of COc1cc(/C=C/c2nc3n(n2)CCC[C@@H]3c2cc(F)c(F)c(F)c2)c(F)cc1-n1cnc(C)c1 (single isomer, unassigned) : 7.13

---

Recorded IC50, one value per entry.
# System: Aβ 42 production
# procedureText: Quantification of Aβ Peptide in Culture of Neurons from Rat Fetus Brain
# Assay type: cell-based
# conditionDescription: Neuron, 72 h; rat primary neuronal culture (cerebral cortex, embryonic day 18 Wistar rats); medium collected three days after addition of the compound; Aβ ELISA; read-out: Effect of reducing Aβ 42 production IC50
# Experimental: Quantification of Aβ Peptide in Culture of Neurons from Rat Fetus Brain (1) Rat Primary Neuronal Culture Primary neuronal cultures were prepared from the cerebral cortex of embryonic day 18 Wistar rats (Charles River Japan, Yokohama, Japan). Specifically, the embryos were aseptically removed from pregnant rats under ether anesthesia. The brain was isolated from the embryo and immersed in an ice-cold L-15 medium (Invitrogen Corp. Cat #11415-064, Carlsbad, Calif., USA, or SIGMA L1518, for example). […]
Reply numerically in nM, unit not repeated.

The following compounds have reported results that may help.
> print(dat)
                                   compound  number
1  COC(=O)c1nc2n(c1-c1ccc(F)cc1)CCC/C2=C\c1ccc(-n2cnc(C)c2)c(OC)c1 [Example 21]      41
2  Cc1cn(-c2ccc(/C=C/c3nc4n(n3)CCCC4c3cc(F)c(F)c(F)c3)cc2F)cn1 (single isomer, unassigned) [Example 62]      23
3  COc1cc(/C=C/c2nc(-c3ccc(F)cc3)c(C(=O)NCCCl)[nH]2)ccc1-n1cnc(C)c1 [Example 9]      83
4  COc1cc(/C=C2\CCCn3c2nc(CO)c3-c2ccc(F)cc2)ccc1-n1cnc(C)c1 [Example 23]      60
5  COc1cc(/C=C2\CCCn3c(-c4ccc(F)cc4)cnc32)ccc1-n1cnc(C)c1 [Example 18]     170
6  COc1cc(/C=C/c2nc3n(n2)CCCC3c2cc(F)c(F)c(F)c2)cnc1-n1cnc(C)c1 (single isomer, unassigned) [Example 60]      40
7  COc1cc(/C=C/c2nc(-c3ccc(F)cc3)c3n2CCN(C)C3)ccc1-n1cnc(C)c1 [Example 15]     180
8  COc1cc(/C=C/c2nc3n(n2)CCOC3c2ccc(Br)cc2)ccc1-n1cnc(C)c1 (single isomer, unassigned; (-)) [Example 143]      22

Reported IC50 of COc1cc(/C=C(\F)c2nc3n(n2)CCC[C@@H]3c2cc(F)c(F)c(F)c2)ccc1-n1cnc(C)c1 (single isomer, unassigned) [Example 58] : 39

Reported IC50 of COc1cc(/C=C/c2nc3n(n2)CCC[C@]3(O)c2ccc(C)cc2)ccc1-n1cnc(C)c1 (single isomer, unassigned) [Example 155] : 39

Reported IC50 of COc1cc(/C=C/c2nc3n(n2)CCC[C@@]3(O)c2cccc3ccccc23)ccc1-n1cnc(C)c1 (single isomer, unassigned) [Example 136] : 24

Reported IC50 of COc1cc(/C=C/c2nc3n(n2)CCC[C@@H]3c2c(F)cc(F)cc2F)ccc1-n1cnc(C)c1 (single isomer, unassigned) [Example 64] : 28

Reported IC50 of COc1cc(/C=C/c2nnc(Cc3ccc(F)cc3)[nH]2)ccc1-n1cnc(C)c1 [Example 17] : 58

Reported IC50 of COc1cc(/C=C/c2nc3n(n2)CCCC3(O)c2cc(F)c(F)c(F)c2)ccc1-n1cnc(C)c1 (single isomer, unassigned) [Example 66] : 20

Reported IC50 of COc1cc(/C=C/c2nc3n(n2)CCO[C@H]3c2cc(F)c(F)c(F)c2)ccc1-n1cnc(C)c1 (single isomer, unassigned) [Example 77] : 83

Reported IC50 of COc1cc(/C=C/c2nc3n(n2)CCC3c2cc(F)c(F)c(F)c2)ccc1-n1cnc(C)c1 (single isomer, unassigned) [Example 113] : 32
